So I've got a bunch of sequences here, and I need their log2 fold change of degron read counts values.
testedTarget: T1, CRBN, Q96SW2;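 note: pooled lentiviral library of zinc finger degron-EGFP fusions in mCherry-positive Jurkat cells, FACS-sorted after compound exposure, with degron abundance counted by next-generation sequencing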
T1 chain: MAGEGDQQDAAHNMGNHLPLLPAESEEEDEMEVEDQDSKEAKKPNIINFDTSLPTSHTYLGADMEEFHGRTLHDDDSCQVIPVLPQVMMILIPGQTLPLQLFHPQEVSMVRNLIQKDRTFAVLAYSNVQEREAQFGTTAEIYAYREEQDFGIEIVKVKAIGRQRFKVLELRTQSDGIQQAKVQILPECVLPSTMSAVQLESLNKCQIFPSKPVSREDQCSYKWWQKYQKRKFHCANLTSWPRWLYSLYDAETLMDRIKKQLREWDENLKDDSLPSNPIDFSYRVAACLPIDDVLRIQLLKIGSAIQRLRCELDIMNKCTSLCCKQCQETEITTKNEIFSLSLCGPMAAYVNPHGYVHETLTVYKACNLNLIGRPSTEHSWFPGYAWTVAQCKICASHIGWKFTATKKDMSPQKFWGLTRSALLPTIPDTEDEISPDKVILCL
assay: log2 fold change of degron read counts, EGFP-low vs EGFP+ sorted cells (limma voom), compound-induced degradation; higher = more compound-induced degradation of the degron-EGFP fusion; degrons are variants of IKZF1/3 zinc finger 2; compound dose not given here
conditionNotes: Jurkat; 18 h; compound: compound 22 (5-morpholino-thalidomide)
In all, about 8,300 sequences were measured (“log2 fold change of degron read counts, EGFP-low vs EGFP+ sorted cells (limma voom), compound-induced degradation”: median about -1.1, highest 2% from about 3.2 on). The sample holds the highest values, similar sequences and a random draw of the others, so the mix is not that of the screen.

Past entries and their recorded results:
{"seqString": "LYCPICGFRCTQKGNLLRHIKL [46L_47Y_49P_50I_52G_53F_54R_55C_67L_, Q9UKT9]", "log2 fold change of degron read counts": 3.4}
{"seqString": "LMCPICGFRCTQKGNLLRHIKL [46L_47M_49P_50I_52G_53F_54R_55C_67L_, Q9UKT9]", "log2 fold change of degron read counts": 1.13}
{"seqString": "LQCPICGFICTQKGNLLRHIKL [46L_47Q_49P_50I_52G_53F_54I_55C_67L_, Q9UKT9]", "log2 fold change of degron read counts": 2.22}

// each listed sequence needs a value for log2 fold change of degron read counts
1. LTCPICGFRCTQKGNLLRHIKL [46L_47T_49P_50I_52G_53F_54R_55C_67L_, Q9UKT9]
2. LLCPICGFRCTQKGNLLRHIKL [46L_47L_49P_50I_52G_53F_54R_55C_67L_, Q9UKT9]
3. LECPICGFRCTQKGNLLRHIKL [46L_47E_49P_50I_52G_53F_54R_55C_67L_, Q9UKT9]
4. LQCPICGFRCTQKGNLLRHIKL [46L_47Q_49P_50I_52G_53F_54R_55C_67L_, Q9UKT9]

Reply text:
1. 2.61
2. -0.346
3. 0.491
4. 1.54
